- assayedSystem: T1, CD16a/FCgRIIIa (F158 variant) on HEK293 cells, Terbium-labelled (UniProt P08637 17-254, limits assumed, Terbium donor dye)
- T1 construct: whole, on cells; also called cellular CD16a
- T1 sequence (P08637 17-254 limits assumed, change not shown): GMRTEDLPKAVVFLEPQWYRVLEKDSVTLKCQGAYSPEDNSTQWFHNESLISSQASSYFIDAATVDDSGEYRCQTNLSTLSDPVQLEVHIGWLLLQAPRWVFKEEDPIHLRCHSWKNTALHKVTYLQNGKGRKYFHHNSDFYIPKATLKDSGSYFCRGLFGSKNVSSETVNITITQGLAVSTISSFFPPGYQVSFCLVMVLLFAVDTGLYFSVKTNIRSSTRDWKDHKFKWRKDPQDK
- protocolSummary: HTRF competition vs IgG-d2 on HEK293 cells
Numbered stars: 1 amine (or outer) side, 2 acyl side, 3 side chain; on linkers, the order of the positions; unused ones are H or OH. Bridge positions count the residues as written; N and C are the ends. Square brackets hold non-standard residues; d marks the D form. Primed or numbered codes have the meaning given here. Ends that are not written are not given here. TBMT = 2,4,6-tris(bromomethyl)-s-triazine, C(c1nc(C[*:2])nc(C[*:3])n1)[*:1]; TBMT″ = 2,4,6-tris(bromomethyl)-s-triazine, scaffold on three Cys; hPhe = N[C@@H](CCc1ccccc1)C(=O)O
IC50 values for the binders below.
Write the number in nM without appending the unit.

Take a look at these entries with their results.
ACRWHXSEPCGAWCA (CiRWH[4MePhe]SEPCiiGAWCiii, scaffold TBMT) [BCY20380] ... 898
ACPPTVYCHPLDCAK (C-terminal Lys(PYA), scaffold TATA) [BCY15685] ... 7560
CRWH[hPhe]SEPCGAWC-NH2 (linker 1-9-13 via TBMT″, scaffold TBMT) [BCY21693] ... 377

Any idea what its IC50 is? The binder is ACRWHXSEPCGAWCA (CiRWH[HyP]SEPCiiGAWCiii, scaffold TBMT) [BCY20383] 1110

# iterate: ACRWSVEDPC[dA]AWCA-NH2 (linker 2-10-14 via TBMT (inferred), scaffold TBMT) [BCY14956] 1400

Origin of measurements: patent US20240108738A1
